# condition info: in acetone, 283.15 K
reported property: solubility (mole fraction)
Please reply with the number alone, leaving off any unit.

Enquiry: Please look up its solubility (mole fraction): COc1ccc(Cl)cc1C(=O)NCCc1ccc(S(=O)(=O)NC(=O)NC2CCCCC2)cc1
Return: 0.000471

###

# condition info: in acetone, 293.15 K
reported property: solubility (mole fraction)

Enquiry: Please look up its solubility (mole fraction): COc1ccc(Cl)cc1C(=O)NCCc1ccc(S(=O)(=O)NC(=O)NC2CCCCC2)cc1
Return: 0.00069

###

# condition info: in MIBK, 288.15 K
reported property: solubility (mole fraction)
Please reply with the number alone, leaving off any unit.

Enquiry: Please look up its solubility (mole fraction): COc1ccc(Cl)cc1C(=O)NCCc1ccc(S(=O)(=O)NC(=O)NC2CCCCC2)cc1
Return: 0.000227

###

# condition info: in ethyl acetate, 303.15 K
reported property: solubility (mole fraction)
Please reply with the number alone, leaving off any unit.

Enquiry: Please look up its solubility (mole fraction): COc1ccc(Cl)cc1C(=O)NCCc1ccc(S(=O)(=O)NC(=O)NC2CCCCC2)cc1
Return: 0.000226

###

# condition info: in ethyl acetate, 298.15 K
reported property: solubility (mole fraction)
Please reply with the number alone, leaving off any unit.

Enquiry: Please look up its solubility (mole fraction): COc1ccc(Cl)cc1C(=O)NCCc1ccc(S(=O)(=O)NC(=O)NC2CCCCC2)cc1
Return: 0.000181

###

# condition info: in acetone, 323.15 K
reported property: solubility (mole fraction)

Enquiry: Please look up its solubility (mole fraction): COc1ccc(Cl)cc1C(=O)NCCc1ccc(S(=O)(=O)NC(=O)NC2CCCCC2)cc1
Return: 0.00261

###

# condition info: in methyl acetate, 283.15 K
reported property: solubility (mole fraction)
Please reply with the number alone, leaving off any unit.

Enquiry: Please look up its solubility (mole fraction): COc1ccc(Cl)cc1C(=O)NCCc1ccc(S(=O)(=O)NC(=O)NC2CCCCC2)cc1
Return: 0.000127

###

# condition info: in ethyl acetate, 288.15 K
reported property: solubility (mole fraction)
Please reply with the number alone, leaving off any unit.

Enquiry: Please look up its solubility (mole fraction): COc1ccc(Cl)cc1C(=O)NCCc1ccc(S(=O)(=O)NC(=O)NC2CCCCC2)cc1
Return: 0.000121

###

# condition info: in sec-butanol, 298.15 K
reported property: solubility (mole fraction)

Enquiry: Please look up its solubility (mole fraction): COc1ccc(Cl)cc1C(=O)NCCc1ccc(S(=O)(=O)NC(=O)NC2CCCCC2)cc1
Return: 0.000141

###

# condition info: in sec-butanol, 288.15 K
reported property: solubility (mole fraction)
Please reply with the number alone, leaving off any unit.

Enquiry: Please look up its solubility (mole fraction): COc1ccc(Cl)cc1C(=O)NCCc1ccc(S(=O)(=O)NC(=O)NC2CCCCC2)cc1
Return: 7.97e-05

###

# condition info: in acetone, 298.15 K
reported property: solubility (mole fraction)
Please reply with the number alone, leaving off any unit.

Enquiry: Please look up its solubility (mole fraction): COc1ccc(Cl)cc1C(=O)NCCc1ccc(S(=O)(=O)NC(=O)NC2CCCCC2)cc1
Return: 0.000894

###

# condition info: in ethanol, 288.15 K
reported property: solubility (mole fraction)
Please reply with the number alone, leaving off any unit.

Enquiry: Please look up its solubility (mole fraction): COc1ccc(Cl)cc1C(=O)NCCc1ccc(S(=O)(=O)NC(=O)NC2CCCCC2)cc1
Return: 0.00015
